Numbers sourced from paper PMC10216305.

- Method Description: in vivo
- Design: species or system mice
- Condition Description: C57, mouse, iv, 0.037 MBq, total radioactivity, Brain uptake
- Description: All animal studies were conducted in compliance with Institutional Animal Care and Use Committee approval. C57 mice were purchased from Charles River Laboratory (Wilmington, NC). […] The tumor uptake specificity of ^67Cu-NOTA-PEG2Nle-CycMSHhex and ^67Cu-NOTA-GGNle-CycMSHhex was determined by co-injecting 10 μg (6.07 nmol) of unlabeled NDP-MSH. Mice were sacrificed at 0.5, 2, 4, and 24 h post-injection, and tumors and organs of interest were harvested, weighed, and counted. […]
Positions of bridges follow the written chain, without caps; N, C: chain ends. Non-standard residues stand in square brackets, D forms with d. Residues, ends and D or L forms follow the SMILES beside them. *: point of attachment. NOTA = O=C(O)CN1CCN(CC(=O)O)CCN(CC(=O)*)CC1; Nle = CCCC[C@H](N)C(=O)O
Attribute Measured: tissue uptake at 4 h (%ID/g)

Molecule	Unit Tag	Value Measured
CCCC[C@H](NC(=O)CNC(=O)CNC(=O)CN1CCN(CC(=O)O)CCN(CC(=O)O)CC1)C(=O)N[C@H]1CC(=O)NCCCC[C@@H](C(N)=O)NC(=O)[C@H](Cc2c[nH]c3ccccc23)NC(=O)[C@H](CCCNC(=N)N)NC(=O)[C@@H](Cc2ccccc2)NC(=O)[C@H](Cc2c[nH]cn2)NC1=O [^67Cu-NOTA-GGNle-CycMSHhex, ^67Cu-NOTA-GlyGlyNle-CycMSHhex, metal not drawn] ({NOTA}-GG[Nle]DH[dF]RWK-NH2; lactam 4-9)	%ID/g	0.02
